Give pIC50 for every item shown.
tested on: PC3/hPRLR cells; assay: Cell viability (cell kill) assay; assay type: cell-based, human; settings: PC3/hPRLR; Table 18
Answer as the number alone; pIC50 is minus log10 of concentration in mol/L.

For the molecule H1H6765P-SMCC-DM1 (conjugate) VH: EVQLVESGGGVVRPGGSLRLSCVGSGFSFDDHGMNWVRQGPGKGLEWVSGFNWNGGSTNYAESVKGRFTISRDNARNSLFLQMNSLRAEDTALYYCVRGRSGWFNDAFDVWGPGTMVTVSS VL: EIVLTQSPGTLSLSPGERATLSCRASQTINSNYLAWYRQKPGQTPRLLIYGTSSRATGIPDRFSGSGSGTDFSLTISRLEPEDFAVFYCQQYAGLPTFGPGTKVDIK , what pIC50 is on record?
9.52

What value of pIC50 has been reported for the following molecule? H1H6953N-SMCC-DM1 (conjugate) VH: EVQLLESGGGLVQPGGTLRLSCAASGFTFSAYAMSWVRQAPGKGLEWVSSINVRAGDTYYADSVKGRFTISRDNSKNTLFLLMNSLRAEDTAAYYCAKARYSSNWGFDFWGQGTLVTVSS VL: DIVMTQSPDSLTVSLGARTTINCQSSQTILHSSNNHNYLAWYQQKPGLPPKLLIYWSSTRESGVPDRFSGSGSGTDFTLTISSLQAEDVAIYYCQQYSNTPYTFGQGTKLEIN
9.40

Request the reported pIC50 associated with H1H6958N2-mc-VC-PAB-MMAE (conjugate) VH: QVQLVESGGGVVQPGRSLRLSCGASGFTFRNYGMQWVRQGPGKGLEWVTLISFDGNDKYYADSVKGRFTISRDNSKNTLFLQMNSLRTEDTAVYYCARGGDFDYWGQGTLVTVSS VL: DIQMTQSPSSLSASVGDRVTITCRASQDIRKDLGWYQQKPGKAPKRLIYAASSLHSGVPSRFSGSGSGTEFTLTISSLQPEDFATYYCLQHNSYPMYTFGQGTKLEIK
9.30

Query (molecule): H1H6953N-mc-VC-PAB-MMAE (conjugate) VH: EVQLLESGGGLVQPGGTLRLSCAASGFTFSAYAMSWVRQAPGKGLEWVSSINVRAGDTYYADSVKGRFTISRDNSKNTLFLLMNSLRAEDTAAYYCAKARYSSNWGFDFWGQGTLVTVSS VL: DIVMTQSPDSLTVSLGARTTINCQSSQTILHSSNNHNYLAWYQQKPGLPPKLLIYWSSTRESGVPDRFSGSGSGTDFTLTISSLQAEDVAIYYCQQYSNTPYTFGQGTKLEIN ; field requested: pIC50
9.70

Using the record for H1H6765P-mc-VC-PAB-MMAE (conjugate) VH: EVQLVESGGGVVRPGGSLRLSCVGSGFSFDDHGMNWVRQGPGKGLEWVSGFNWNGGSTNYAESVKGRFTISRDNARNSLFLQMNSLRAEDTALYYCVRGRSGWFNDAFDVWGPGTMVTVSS VL: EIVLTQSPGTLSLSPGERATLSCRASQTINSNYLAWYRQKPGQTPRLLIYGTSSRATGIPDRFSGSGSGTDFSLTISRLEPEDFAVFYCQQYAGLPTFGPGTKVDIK , report its pIC50.
9.40

Entry under review: H1H6958N2-DM1: anti-PRLR antibody H1H6958N2 conjugated to DM1 through an SMCC linker (conjugate) VH: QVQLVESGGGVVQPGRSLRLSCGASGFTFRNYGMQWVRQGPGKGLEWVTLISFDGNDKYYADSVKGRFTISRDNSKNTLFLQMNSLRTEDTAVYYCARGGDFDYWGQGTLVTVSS VL: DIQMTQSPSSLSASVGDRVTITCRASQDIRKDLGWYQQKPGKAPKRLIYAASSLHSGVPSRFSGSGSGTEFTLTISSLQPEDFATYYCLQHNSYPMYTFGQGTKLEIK . Reported pIC50?
9.30
